# tested system: T1, hCMV gH + gL + UL128 + UL130 + UL131A (5-member complex; HEK293T co-transfectant) (hCMV, UniProt P12824 24-743; P16832 31-278; P16837 1-171; P16772 1-214)
# T1 construct: whole, on cells; in the functional rows it stands for the complex on virions or transduced cells of the strain or isolate named in the readout; also called gH/gL/UL128-131A complex; pentameric complex
# test details: cell competition; competitor 2C12-biotin
Entries and their Inhibition of binding (%)
readout label: Inhibition of binding (%)

{"binder": "10F7 (antibody, V domains shown, human IgG; also called 10F7-biotin) VH: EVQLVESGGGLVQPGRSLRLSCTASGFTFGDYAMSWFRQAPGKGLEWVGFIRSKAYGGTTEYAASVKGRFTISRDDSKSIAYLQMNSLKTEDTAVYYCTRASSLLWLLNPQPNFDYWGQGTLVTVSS VL: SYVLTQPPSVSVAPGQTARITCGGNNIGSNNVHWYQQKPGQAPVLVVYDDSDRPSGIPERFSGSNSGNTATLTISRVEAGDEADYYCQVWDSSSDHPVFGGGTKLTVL", "readout label": "Inhibition of binding (%)", "measured result": "0%"}
{"binder": "3G16 (antibody, V domains shown, human IgG; also called 3G16-biotin) VH: QSALTQPASVSGSPGESITISCTGTISDVGAYNSVSWYQQHSGTAPELIIYDVTNRPAGVSSRFSGSKSGNTASLTISWLQSEDEAEYYCSSYTTSDTYVFGSGTQVTVL V domain: RAQLVQSAAEMKNPGASVKVSCEASGYTFTGYYVHWMRQAPGQGLEWMGWINPMTGATKSPQKFQGRVTMTRDTSTTATHIELTRLRSDDSAVFFCARGGPTSTRITGKRHFDLWGRGTLITVAS", "readout label": "Inhibition of binding (%)", "measured result": "0%"}
{"binder": "8C15 (antibody, V domains shown, human IgG; also called 8C15-biotin) VH: QVQLQESGPGLVKPSETLSLTCTVSGGSIRSYYWSWIRQPPGKGLEWIGHIYYSGNTNYSPSLQSRVTISLDTPKNQFSLRLSSVTAADTAVYYCARHDVIVVRGVFDVWGQGTVVTVSS VL: QSALTQPASVSGSPGQSITISCTGTSSDIGTYNLVSWYQQHPGKAPKVLIYDGSKRPSGVSSRFSASKSGNTASLTISGLQAEDETDYYCCSYAGTSDFFVVFGGGTKLTVL", "readout label": "Inhibition of binding (%)", "measured result": "100%"}
{"binder": "7B13 (antibody, V domains shown, human IgG) VH: QVQLVESGGGVVQPGGSLRLSCAASGFSFSNYGMHWVRQAPGKGLEWVALIPSDGNYQYYTDSVKGRFTVSRDNSRNTLYLQMKSLRAEDTARYHCAHLGGGLFDFWGQGTLVTVSS VL: QSALNQPRSVSGSPGQSVSISCTGSSSDVGGYEFVSWYQHHPGKAPKLIIYDVDKRPSGVPDRFSGSRSGDTASLTISGLQAEDEADYYCYSSADTWVFGGGTKLTVL", "readout label": "Inhibition of binding (%)", "measured result": "100%"}

From: patent US20170296650A1
